# Test details: ATG_PXRE_CIS: Attagene CIS-FACTORIAL HepG2 Assay for human Pregnane X Receptor Element (PXRE) (AID 2282957)
# Study conditions: HepG2 Attagene CIS-FACTORIAL PXRE reporter, mRNA; actives raise or lower the signal
Active and inactive are the calls of the source. Rule for the calls: active = hit-call score of the fitted dose curve at least 0.9, where 1 is the maximum; inactive = score below 0.9.

Molecule	AC50
CCC(C)CO (configuration not stated)	inactive
CC(C)OC(=O)COc1ccc(Cl)cc1Cl	68.8 µM (active)
NC(=O)C(F)(F)C(F)(F)C(F)(F)C(F)(F)C(N)=O	inactive
CNS(=O)(=O)C(F)(F)C(F)(F)C(F)(F)C(F)(F)C(F)(F)C(F)(F)C(F)(F)C(F)(F)F	10.4 µM (active)
COC(F)(C(F)F)C(F)(F)F (configuration not stated)	inactive
CC(C)(C)C(=O)C1C(=O)c2ccccc2C1=O	13.9 µM (active)
O=C(Cl)C(F)(F)C(F)(F)C(F)(F)C(F)(F)C(F)(F)C(F)(F)F	inactive
O=C(O)CCC(F)(F)C(F)(F)C(F)(F)F	inactive
O=C(O)C(F)(F)C(F)(F)C(F)(F)OC(F)(C(F)(F)F)C(F)(F)F	39.8 µM (active)
OC(O)C(F)(F)C(F)(F)F	inactive
NS(=O)(=O)C(F)(F)C(F)(F)C(F)(F)C(F)(F)C(F)(F)C(F)(F)F	41 µM (active)
CC(C)Nc1ccc(NC(C)C)c2c1C(=O)c1ccccc1C2=O	0.21 µM (active)
CCC(Cc1c(I)cc(I)c(N)c1I)C(=O)O (configuration not stated)	151 µM (active)
Cc1cccc(C)n1	inactive
CCOCN(C(=O)CS(=O)(=O)O)c1c(C)cccc1CC	42 µM (active)
CCCCOC(=O)[C@H](C)O	inactive
CC(C)OC=O	inactive
OCCCC(F)(F)C(F)(F)C(F)(F)C(F)(F)C(F)(F)C(F)(F)C(F)(F)C(F)(F)F	inactive
O=c1cccc[nH]1	inactive
CC(C)C(=O)OCc1ccccc1	inactive
CC(C)CC=C(C=O)c1ccccc1	0.956 µM (active)
CCC(=O)OC(C)c1ccccc1 (configuration not stated)	26.5 µM (active)

###

# Assayed system: Cellular tumor antigen p53 (Homo sapiens)
# Test details: ATG_p53_CIS: Attagene CIS-FACTORIAL HepG2 Assay for human p53 Transcription Factor (AID 2282994)
# Study conditions: HepG2 p53 cis-element reporter, Attagene mRNA; actives raise or lower the signal
Activity calls are given as the source filed them. How the source made its calls: active means hit-call score of the fitted dose curve at least 0.9, where 1 is the maximum; inactive means score below 0.9.
Possible outcomes: y = active, n = inactive

Molecule	Group label
CC(C)C(=O)OCc1ccccc1	n
COC(=O)c1ccc(C=O)cc1	n
CNS(=O)(=O)C(F)(F)C(F)(F)C(F)(F)C(F)(F)C(F)(F)C(F)(F)C(F)(F)C(F)(F)F	n
NC(=O)C(F)(F)C(F)(F)C(F)(F)C(F)(F)C(F)(F)C(F)(F)C(F)(F)F	n
CCOC(=O)CC(=O)C(F)(F)C(F)(F)F	n
O=C1c2ccccc2C(=O)c2c(Cl)cccc21	n
CCCCCCCCCCCCC[N+](C)(C)Cc1ccccc1	n
CCc1cc(Cc2cc(CC)c(N)c(CC)c2)cc(CC)c1N	y
O=C(c1ccccc1)c1ccc(Cl)cc1	n
CO[Si](CCCOCC1CO1)(OC)OC (configuration not stated)	n
NS(=O)(=O)C(F)(F)C(F)(F)C(F)(F)C(F)(F)C(F)(F)C(F)(F)F	n
Oc1ccc(C2(c3ccc(O)c(C4CCCCC4)c3)CCCCC2)cc1C1CCCCC1	n
CSc1ccc(Cl)cc1	n
CO[Si](C)(CCC(F)(F)C(F)(F)C(F)(F)C(F)(F)C(F)(F)C(F)(F)F)OC	n
O=C(O)C(F)(F)C(F)(F)C(F)(F)C(F)(F)C(F)(F)C(F)(F)C(F)F	n
O=c1[nH]cccc1O	n
NCC(F)(F)C(F)(F)C(F)(F)C(F)(F)C(F)(F)C(F)(F)F	n
O=C(Cl)c1ccc(Cl)cc1Cl	n
Brc1ccccn1	n
C[C@]12CC[C@H]3C(=CCc4cc(O)ccc43)[C@@H]1CCC2=O	n
C=CC(=O)OCC(F)(F)C(F)(F)C(F)(F)C(F)(F)C(F)(F)C(F)(F)C(F)(F)C(F)F	n
CC(C)=CCCC(C)O (configuration not stated)	n
